Run Description: qHTS assay to identify small molecule antagonists of the peroxisome proliferator-activated receptor delta (PPARd) signaling pathway - cell viability counter screen (AID 743213); also: nearly all actives have a fitted effect of over 50% in size
Measurement Context: PPARd-bla HEK293H viability, CellTiter-Glo luminescence, 17 h; series mostly up to 62 µM
Inconclusive results are not listed. The source made the active and inactive calls. Calls follow the shape of the dose curve; as a rule, active = well fitted cell-killing curve with a large enough effect in the repeat runs; inconclusive = weak or mixed curves; inactive = no such curve, though single readings can be large or run the other way.
# output must be one of t (active), f (inactive)

Look over these answered cases.
Molecule: O=C(c1ccccc1)C1CCC1
Class Label: f
--
Molecule: CCCCCc1ccco1
Class Label: f

Lookup: Hey, what did the test say about O[C@@H](CNC[C@H](O)[C@H]1CCc2cc(F)ccc2O1)[C@@H]1CCc2cc(F)ccc2O1 ?
Found: t

Lookup: Then what about the molecule CCOC(=O)c1ccc(NC(=O)CN2CCCCC2)cc1 ?
Found: f

Lookup: Then what about the molecule CCCCCCOC(=O)CCCCC ?
Found: f

Lookup: Then what about the molecule CC(C)N(C)C ?
Found: f

Lookup: Then what about the molecule CC(=O)C(C)=O ?
Found: f

Lookup: Then what about the molecule c1ccc(CCCc2ccncc2)cc1 ?
Found: f

Lookup: Then what about the molecule CC(C)(C)C1(CCc2ccc(Cl)cc2)CO1 (centres undefined) ?
Found: f

Lookup: Then what about the molecule N[C@@H](Cc1cc(I)c(O)c(I)c1)C(=O)O ?
Found: f

Lookup: Then what about the molecule CCCCOC(=O)CCCCC(=O)OCCCC ?
Found: f

Lookup: Then what about the molecule CCCCCC ?
Found: f

Lookup: Then what about the molecule CNCc1ccc(NC(=O)c2c[nH]c3c2C(=O)CCC3)cc1 ?
Found: f

Lookup: Then what about the molecule CC(C)(C)C(O)/C=C/c1ccc2c(c1)OCO2 (centres undefined) ?
Found: f
